System: UACC-257 melanoma
Experiment: NCI-60 one-dose screen, 48 h (100 = growth as untreated, 0 = no growth, -100 = all killed)
Conditions: 10 µM unless noted
Description: Cells are grown in 96 well plates and exposed to the test compound for 48 hours. Compounds are tested at a single concentration, which is 10^-5 M for most compounds. The reported endpoint is percent growth (GI% or GIPRCNT), where numbers from 0 - 100% represent growth inhibition, and numbers from -100% - 0 represent cell death. For example, a value of 40 represents 60% growth inhibition. A value of 0 means no net growth occurred over the course of the experiment. […]
About 83,000 compounds went through this panel and 20% of them were active in at least one assay; those are over-represented in the sample as a whole.
We'd kindly ask you to apply these growth classes: bin A (below 50%), bin B (50% to below 90%), bin C (90% or more)

{"molecule": "CCCCCCCCCCCCCCCC(N)c1ccccc1 (stereo not given)", "cat": "bin B"}
{"molecule": "N#C/C(=C\\c1ccc(-c2ccc(Cl)cc2)o1)C(=O)Nc1ncc(Cc2ccc(Cl)cc2)s1", "cat": "bin A"}
{"molecule": "COc1ccc(N2CCC(=O)NC2=S)cc1", "cat": "bin C"}
{"molecule": "Cc1ccc(-n2c(=S)[nH]c3sc4c(c3c2=O)CCC(=O)C4)cc1", "cat": "bin B"}
{"molecule": "COc1cc(-c2cc(-c3cccs3)c(C#N)c(N3CCOCC3)n2)cc(OC)c1OC", "cat": "bin A"}
{"molecule": "CCc1ccc(Oc2cn[nH]c2-c2ccc(OCCc3ccc(F)cc3)cc2O)cc1", "cat": "bin C"}
{"molecule": "CC1(C)CC2=C3C=C[C@@H]4[C@@]5(C)CCC(=O)C(C)(C)[C@@H]5CC[C@@]4(C)[C@]3(C)CC[C@@]2(C(=O)O)CC1=O", "cat": "bin A"}
{"molecule": "COCCn1cc(-c2nc(-c3cc4cccnc4n3CCOC)cs2)c2cc(OC)ccc21", "cat": "bin C"}
{"molecule": "Cc1c(-c2nc3ccc(F)cc3c(=O)[nH]2)c2ccccc2n1C", "cat": "bin B"}
{"molecule": "O=C(O)CCCN1C(=O)/C(=C/C(Cl)=C/c2ccccc2)SC1=S", "cat": "bin A"}
{"molecule": "COc1cc2oc(-c3cccc(NC(=O)c4cccc(Br)c4)c3)cc(=O)c2c(OC)c1OC", "cat": "bin B"}
{"molecule": "COc1ccc2[nH]cc(-c3nc(-c4cn(C)c5c(Cl)nccc45)cs3)c2c1", "cat": "bin A"}
{"molecule": "Cn1cccc1C(=O)C1C(c2cccc([N+](=O)[O-])c2)C2C3CCCCC3CN2C12C(=O)Nc1ccc(Cl)cc12 (stereo not given)", "cat": "bin B"}
{"molecule": "CCN(CC)C(=S)SC(SC(=S)N(CC)CC)C(=O)c1nnn(-c2ccc([N+](=O)[O-])cc2)c1C", "cat": "bin C"}
{"molecule": "C=C(CNCCc1ccc(O)cc1)[C@@H]1CC[C@]2(CO)CC[C@]3(C)[C@H](CC[C@@H]4[C@@]5(C)CCC(NCCO)C(C)(C)[C@@H]5CC[C@]43C)[C@@H]12 (stereo not given in full)", "cat": "bin A"}
{"molecule": "CC(C)=NNc1ccccn1", "cat": "bin A"}
{"molecule": "CCN1C(=O)N(CC)C2C1NN=c1s/c(=C\\c3cccc([N+](=O)[O-])c3)c(=O)n12 (stereo not given)", "cat": "bin B"}
{"molecule": "CCCc1cc(NC)nc(S(=O)(=O)CC)n1", "cat": "bin C"}
{"molecule": "O=C(Cn1cc(CN2C(=O)c3ccccc3S2(=O)=O)nn1)Nc1nc2ccccc2s1", "cat": "bin C"}
{"molecule": "COc1ccc(-c2nc(SCC(C)C)nc(N/N=C\\c3ccc(F)cc3)c2C#N)cc1", "cat": "bin C"}
{"molecule": "COc1ccc(C(=O)Nc2ncc(Cc3ccc(F)cc3)s2)cc1", "cat": "bin B"}
{"molecule": "CCCCC(=O)c1ccco1", "cat": "bin C"}
{"molecule": "O=C1c2c(c3c4ccc(Br)cc4oc3c3[nH]c4ccccc4c23)C(=O)N1O", "cat": "bin B"}
{"molecule": "COc1ccc(-c2nc3c(c(-c4ccccc4)nn3-c3ccccc3)c(-c3ccc(N4CCN(C)CC4)cc3)c2C#N)cc1", "cat": "bin C"}
{"molecule": "O=c1oc2c(cnc3ccccc32)cc1-c1ccsc1", "cat": "bin C"}
{"molecule": "CC(=O)N(N=Nc1ccccc1)c1cccc2ccccc12", "cat": "bin C"}
{"molecule": "CCCC(=O)NC(c1ccc2c(c1)OCO2)c1ccc2cccnc2c1O (stereo not given)", "cat": "bin A"}
{"molecule": "CCOC(=O)c1ccc2[nH]c(O)c(C(=Nc3ccc(N(C)C(=O)CN4CCN(C)CC4)cc3)c3ccccc3)c2c1", "cat": "bin A"}
{"molecule": "C#CCOc1cccc(Nc2ncnc3c(NC(=O)C=C)cccc23)c1", "cat": "bin A"}
{"molecule": "C=C1C(=O)O[C@H]2[C@H]1CC/C(COC(=O)NCc1cc[nH]c1)=C\\CC[C@@]1(C)O[C@@H]21", "cat": "bin B"}
{"molecule": "O=C1N[C@@H]2NC(=[N+]3CCOCC3)N[C@@H]2N1", "cat": "bin C"}
{"molecule": "O=C1CC(N2C(=O)/C(=C/C(Cl)=C\\c3ccc([N+](=O)[O-])cc3)SC2=S)C(=O)N1c1ccc(Cl)cc1 (stereo not given)", "cat": "bin B"}
{"molecule": "COc1ccc(/C=N/NC(=O)CCN2c3ccccc3Sc3ccccc32)cc1", "cat": "bin C"}
{"molecule": "CCOC(=O)CSc1ncnc2c1c(-c1ccccc1)c(-c1ccccc1)n2-c1ccc(C)cc1", "cat": "bin B"}
{"molecule": "CN(C)CCCn1c2c(c3ncccc3c1=O)C(=O)c1ccccc1-2", "cat": "bin B"}
{"molecule": "COc1cc2c(c(OC)c1OC)C(=O)CC(c1cccc(NC(=O)c3ccc(Br)cc3)c1)O2 (stereo not given)", "cat": "bin B"}
{"molecule": "CC(O)c1cnc(/C=C2\\SC(=S)N(Cc3ccccc3)C2=O)s1 (stereo not given)", "cat": "bin B"}
{"molecule": "CN1CCN(Cc2ccc3c(NNC(=O)c4ccccc4)nc4cc(F)ccc4n23)CC1", "cat": "bin A"}
{"molecule": "O=C1Nc2ccccc2[C@]12CC(c1ccccc1)=NN2", "cat": "bin B"}
